Origin of the recorded values: ChEMBL document CHEMBL1201862

# Tested on: K562
# TEST SUMMARY: NCI tumour cell line growth inhibition, 48 h
Active and inactive are the calls of the source. No stated cut-off is given here; in the data, active = GI50 up to about 1.1 µM and inactive = higher.
Mark one answer only. Choices: active, inactive

Observe how each entry below is paired with its result.
[
  {
    "COMPOUND": "CNC(=O)OC(C)CN1c2ccccc2Sc2ccccc21 (configuration not stated)",
    "CATEGORY": "inactive"
  },
  {
    "COMPOUND": "O=C(O)/C(=C/c1c(O)ccc2ccccc12)c1csc(-c2nc(/C(=C\\c3c(O)ccc4ccccc34)C(=O)O)cs2)n1",
    "CATEGORY": "inactive"
  },
  {
    "COMPOUND": "Oc1ccccc1/C=N/c1ccccc1/N=C/c1ccccc1O",
    "CATEGORY": "inactive"
  },
  {
    "COMPOUND": "CN(C)CCOc1ccc2[nH]c(C(=O)N3CC(CCl)c4ccc(N)cc43)cc2c1 (configuration not stated)",
    "CATEGORY": "active"
  },
  {
    "COMPOUND": "CCC1(N=[N+]=[N-])C(=O)c2ccccc2N(c2ccccc2)C1=O (configuration not stated)",
    "CATEGORY": "inactive"
  }
]

Tell me the assay call for COC(=O)C(C)Sc1nc2cc(Cl)ccc2s1 (configuration not stated) please. inactive

Tell me the assay call for COC(=O)[C@@]12CC(C(C)C)[C@H]3CC(C(=O)C=C1OC)[C@H]32 (some centres not stated) please. inactive

Tell me the assay call for Cc1ccc(-c2cc(-c3ccccc3)nc(N)n2)c(O)c1 please. inactive

Tell me the assay call for COc1cc(C2S/C(=C/c3ccccc3)C(=O)N2c2cc(Cl)ccc2Cl)cc(OC)c1OC (configuration not stated) please. inactive

Tell me the assay call for C[C@H](OCc1ccccc1)C(=O)N1CCS(=O)(=O)N2CCC[C@@H]2C1=O please. inactive

Tell me the assay call for [N-]=[N+]=C1CNC(=O)NC1=O please. inactive

Tell me the assay call for Nc1ccccc1-c1noc(=O)[nH]1 please. inactive

Tell me the assay call for O=C1CC(CC(O)C(O)CO)CC(=O)N1 (configuration not stated) please. inactive

Tell me the assay call for Cc1ccc(C(=O)N(C2CCCCC2)C2CCCCC2)cc1/N=N/N(C)C please. inactive

Tell me the assay call for Nc1nc(=O)n(C2OC(CO)C(O)C2O)cc1F (configuration not stated) please. active

Tell me the assay call for COc1cccc2c(=O)c3c(n(C)c12)OC(C(C)C)C3 (configuration not stated) please. inactive

Tell me the assay call for COC(=O)[C@@H]1CS(=O)(=O)C(C(C)C)N1C(C)=O (some centres not stated) please. inactive

Tell me the assay call for ClC(Cl)[Si]12OCCN(CCO1)CCO2 please. inactive

Tell me the assay call for CCN(C(=O)N[C@H](C(=O)N[C@@H](CSC)C(=O)N[C@@H](C)C(=O)OC)C(C)C)c1ccccc1 please. inactive

Tell me the assay call for CC1=NN(c2cccc(S(=O)(=O)O)c2)C2(C1)SCC(=O)N2c1nc2ccccc2s1 (configuration not stated) please. inactive

Tell me the assay call for CC(C)(C)C1=C(Br)C(OC(=O)C(F)(F)F)(C(C)(C)C)OP1(=O)c1ccccc1 (configuration not stated) please. inactive

Tell me the assay call for CCN(CC)CCNC(=O)c1ccc([N+](=O)[O-])cc1OC please. inactive
